The compounds listed here are annotated with their TGI.
System: RXF 393 renal
Test: NCI tumour cell line growth inhibition, 48 h
Express it in µM; write the number only.

compound	measurementName	reading
CO[C@@]12[C@@H]3NC3CN1C1=C(C(=O)C(N)=C(C)C1=O)[C@@H]2COC(N)=O (stereo not given in full)	TGI	4.16
CC/C=C\C/C=C\C[C@H](O)C/C=C1/C(=O)C=C[C@@H]1C/C=C\CCCC(=O)OC	TGI	3.61
COc1cc2c(c(OC)c1OC)-c1ccc(SC)c(=O)cc1[C@@H](NC(=O)c1ccc(Cl)cc1)CC2	TGI	19.4

Turning now to a further compound:
What does the record list as TGI for Oc1ccc(Cl)cc1Cc1cc(Cl)ccc1O ? 8.04
